- System Name: cAMP-dependent protein kinase catalytic subunit alpha (Homo sapiens); further: in the data inactive means no Kd found up to 30 µM
Active and inactive are the calls of the source.
Outcomes you can answer with include only these: YES for active, NO for inactive

Req: // return assay outcome for C#Cc1cccc(Nc2ncnc3cc(OC)c(OCCCCCCC(=O)NO)cc23)c1 [CUDC-101]
Resp: NO

Req: Tell me the recorded outcome of this test for O=C1NC(=O)[C@@H](c2cn3c4c(cccc24)CCC3)[C@@H]1c1c[nH]c2ccccc12 [TIVANTINIB] .
Resp: NO

Req: Assay outcome for O=C(Nc1nc2cccc(-c3ccc(CN4CCS(=O)(=O)CC4)cc3)n2n1)C1CC1 [FILGOTINIB] : what was it?
Resp: NO

Req: What call does the record list for CC(C)c1cc(CNc2nc(Nc3cc(C4CC4)[nH]n3)cc(N3CCN(C)CC3)n2)on1 [XL-228] ?
Resp: NO

Req: Returns: the outcome recorded for C[C@@H](NC(=O)c1ncnc(N)c1Cl)c1ncc(C(=O)Nc2cc(C(F)(F)F)c(Cl)cn2)s1 [TOVORAFENIB] in this assay.
Resp: NO

Req: Short answer needed: outcome of this test for CCCCCCCCCCCCCCCCCCOP(=O)([O-])OC1CC[N+](C)(C)CC1 [PERIFOSINE] ?
Resp: NO

Req: Please let me know the test result on file for COc1ccc(S(=O)(=O)N(C(C)=O)c2ccccc2/C=C/c2cc[n+]([O-])cc2)cc1 [HMN-214] .
Resp: NO

Req: What did the test return for CO[C@H]1C[C@@H]2CC[C@@H](C)[C@@](O)(O2)C(=O)C(=O)N2CCCC[C@H]2C(=O)O[C@H]([C@H](C)C[C@@H]2CC[C@@H](OP(C)(C)=O)[C@H](OC)C2)CC(=O)[C@H](C)/C=C(\C)[C@@H](O)[C@@H](OC)C(=O)[C@H](C)C[C@H](C)/C=C/C=C/C=C/1C [RIDAFOROLIMUS] ?
Resp: NO

Req: In this assay, the call recorded for CN1CCN(CCOc2cc(OC3CCOCC3)c3c(Nc4c(Cl)ccc5c4OCO5)ncnc3c2)CC1 [SARACATINIB] was what?
Resp: NO

Req: Assay result, entry CO[C@H]1C[C@@H]2CC[C@@H](C)[C@@](O)(O2)C(=O)C(=O)N2CCCC[C@H]2C(=O)O[C@H]([C@H](C)C[C@@H]2CC[C@@H](OC(=O)C(C)(CO)CO)[C@H](OC)C2)CC(=O)[C@H](C)/C=C(\C)[C@@H](O)[C@@H](OC)C(=O)[C@H](C)C[C@H](C)/C=C/C=C/C=C/1C [TEMSIROLIMUS] — outcome?
Resp: NO

Req: Which outcome was entered for the compound Cc1cccc(-c2nn3c(c2-c2ccnc4ccc(C(N)=O)cc24)CCC3)n1 [GALUNISERTIB] in this test?
Resp: NO

Req: Recorded test outcome, item C=CC(=O)Nc1cc2c(Nc3ccc(F)c(Cl)c3)ncnc2cc1C#CC(C)(C)N1CCN(C)CC1 [AV-412 FREE BASE]
Resp: NO

Req: What was the test verdict on `CCNC(=O)C#Cc1ccc2c(c1)NC(=O)/C2=C(\Nc1ccc(CN(C)C)cc1)c1ccccc1` ?
Resp: NO

Req: Recorded call for N#CC1(c2ccc(NC(=O)c3cccnc3NCc3ccncc3)cc2)CCCC1 [RIVOCERANIB] ?
Resp: NO

Req: Recorded call for CNC(=O)c1nn(C)c2c1C(C)(C)Cc1cnc(Nc3ccc(N4CCN(C)CC4)cc3)nc1-2 [MILCICLIB] ?
Resp: NO

Req: // param item: C[C@@H](N)c1ccc(C(=O)Nc2ccnc3[nH]ccc23)cc1 [Y-39983] ; yields the recorded call
Resp: YES

Req: Any idea what this test logged for Cc1cc(Nc2ncc(Cl)c(Nc3ccccc3S(=O)(=O)C(C)C)n2)c(OC(C)C)cc1C1CCNCC1 [CERITINIB] ?
Resp: NO

Req: Entry CCn1cc(-c2ccnc3[nH]c(-c4cccc(CN(C)C)c4)cc23)c(-c2ccc(NC(=O)N(C)C)cc2)n1 [GSK-1070916] : call = ?
Resp: NO

Req: Hi, do you know how COc1cc2ncnc(Oc3cccc(NC(=O)Nc4cc(C(C)(C)C(F)(F)F)on4)c3)c2cc1OC [CEP-32496] came out in this test?
Resp: NO

Req: Dear colleague, could you share the recorded outcome for COc1ncc(-c2ccc3nccc(-c4ccnnc4)c3c2)cc1NS(=O)(=O)c1ccc(F)cc1F [OMIPALISIB] when you have a moment?
Resp: NO

Req: Name the outcome recorded for O=C(Cc1ccc(-c2ccc(OCCN3CCOCC3)cc2)cn1)NCc1ccccc1 [TIRBANIBULIN] in the assay.
Resp: NO

Req: Write down the call the test reported for this compound. Item: Cc1csc(-c2nnc(Nc3ccc(Oc4ncccc4-c4ccnc(N)n4)cc3)c3ccccc23)c1 [AMG-900]
Resp: NO

Req: For `C[C@@H](Oc1cc(C(=O)Nc2ccc(C(=O)N3CCN(C)CC3)cc2)nnc1N)c1c(Cl)ccc(F)c1Cl` , which call appears in the assay record?
Resp: NO

Req: Could you please tell me the result logged for Cn1cc(-c2cnn3c(N)c(Br)c([C@@H]4CCCNC4)nc23)cn1 [SCH-900776] in this assay?
Resp: NO

Req: // param item: Cn1cc(-c2cnc3ccc4ccc(CS(=O)(=O)NCc5ccccn5)cc4c(=O)c3c2)cn1 [MK-8033] ; yields the recorded call
Resp: NO

Req: Identify the outcome logged in this assay for the compound shown: O=C(Nc1cc(C(F)(F)F)cc(C(F)(F)F)c1)c1cc(Cl)ccc1O [IMD-0354]
Resp: NO

Req: Query: recorded result category for Cc1cc(C(=O)NOCCO)c(Nc2ccc(I)cc2F)n(C)c1=O [AZD-8330] in this test
Resp: NO

Req: Which result was noted for this compound in the test: NC1(c2ccc(-c3nc4ccn5c(=O)[nH]nc5c4cc3-c3ccccc3)cc2)CCC1 [MK-2206]
Resp: NO

Req: Record lookup: outcome of this test for Cn1cnc2c(F)c(Nc3ccc(Br)cc3F)c(C(=O)NOCCO)cc21 [BINIMETINIB] ?
Resp: NO

Req: Assay result, entry CCOc1cc2ncc(C#N)c(Nc3ccc(F)c(Cl)c3)c2cc1NC(=O)/C=C/CN(C)C [PELITINIB] — outcome?
Resp: NO

Req: How did this test come out for COc1cc2c(Nc3ccc(Cl)c(Cl)c3F)ncnc2cc1OC[C@@H]1C[C@@H]2CN(C)C[C@@H]2C1 [TESEVATINIB] ?
Resp: NO

###

- System Name: Phosphorylase b kinase gamma catalytic chain, liver/testis isoform (Homo sapiens, UniProt P15735); further: in the data inactive means no Kd found up to 30 µM
- Sequence (P15735 whole entry): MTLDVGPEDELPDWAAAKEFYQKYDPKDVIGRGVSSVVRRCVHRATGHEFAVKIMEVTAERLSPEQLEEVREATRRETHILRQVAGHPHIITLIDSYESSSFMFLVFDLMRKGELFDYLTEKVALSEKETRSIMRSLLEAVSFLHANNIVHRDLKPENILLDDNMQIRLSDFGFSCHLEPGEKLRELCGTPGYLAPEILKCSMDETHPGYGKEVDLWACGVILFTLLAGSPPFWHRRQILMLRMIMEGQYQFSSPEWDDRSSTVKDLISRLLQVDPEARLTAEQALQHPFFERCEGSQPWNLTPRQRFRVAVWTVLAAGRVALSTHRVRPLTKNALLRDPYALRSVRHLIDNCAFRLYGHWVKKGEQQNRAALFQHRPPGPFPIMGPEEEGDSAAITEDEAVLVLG
Where a name gives a salt, the structure may show the parent alone. Calls of active or inactive are those of the source.
Field 'call' accepts class 1 for active, class 0 for inactive

Req: Could you please tell me the result logged for O=C1NC(=O)[C@@H](c2cn3c4c(cccc24)CCC3)[C@@H]1c1c[nH]c2ccccc12 [TIVANTINIB] in this assay?
Resp: class 0

Req: In this assay, the call recorded for Cc1cc(Nc2ncc(Cl)c(Nc3ccccc3S(=O)(=O)C(C)C)n2)c(OC(C)C)cc1C1CCNCC1 [CERITINIB] was what?
Resp: class 0

Req: Tell me the assay call for Cc1cnc(NC(=O)Nc2cc(Br)c(C)cc2OC[C@@H]2CNCCO2)cn1 [RABUSERTIB] please.
Resp: class 0

Req: Hey, what did the test say about COc1cc2c(Nc3ccc(Cl)c(Cl)c3F)ncnc2cc1OC[C@@H]1C[C@@H]2CN(C)C[C@@H]2C1 [TESEVATINIB] ?
Resp: class 0

Req: Kindly provide the recorded test outcome for the following molecule: CN1CCN(CCOc2cc(OC3CCOCC3)c3c(Nc4c(Cl)ccc5c4OCO5)ncnc3c2)CC1 [SARACATINIB]
Resp: class 0

Req: Each molecule tested received a call. Report the one for `COCc1c(-c2ccc(NC(=O)Nc3cc(C(F)(F)F)ccc3F)c(F)c2)c2c(N)ncnn2c1CN1CCOCC1` .
Resp: class 0

Req: Entry C=CC(=O)Nc1cc2c(Nc3ccc(F)c(Cl)c3)ncnc2cc1C#CC(C)(C)N1CCN(C)CC1 [AV-412 FREE BASE] : call = ?
Resp: class 0

Req: State the result this test recorded for FC(F)(F)c1ccc(/C=C/c2nc(COc3ccc(CCCCn4ccnn4)cc3)co2)cc1 [MUBRITINIB] .
Resp: class 0

Req: Returns: the outcome recorded for CN1C/C=C/CCOc2cccc(c2)-c2ccnc(n2)Nc2cccc(c2)C1 [ZOTIRACICLIB] in this assay.
Resp: class 0

Req: Outcome? CC(C)c1cc(CNc2nc(Nc3cc(C4CC4)[nH]n3)cc(N3CCN(C)CC3)n2)on1 [XL-228]
Resp: class 1

Req: What outcome does the record of this test show for CO[C@H]1C[C@@H]2CC[C@@H](C)[C@@](O)(O2)C(=O)C(=O)N2CCCC[C@H]2C(=O)O[C@H]([C@H](C)C[C@@H]2CC[C@@H](OP(C)(C)=O)[C@H](OC)C2)CC(=O)[C@H](C)/C=C(\C)[C@@H](O)[C@@H](OC)C(=O)[C@H](C)C[C@H](C)/C=C/C=C/C=C/1C [RIDAFOROLIMUS] ?
Resp: class 0

Req: Recorded test outcome, item Cn1cc(-c2cnn3c(N)c(Br)c([C@@H]4CCCNC4)nc23)cn1 [SCH-900776]
Resp: class 0

Req: Per the assay record, what outcome was assigned to CCn1cc(-c2ccnc3[nH]c(-c4cccc(CN(C)C)c4)cc23)c(-c2ccc(NC(=O)N(C)C)cc2)n1 [GSK-1070916] ?
Resp: class 0

Req: In this assay, the call recorded for COc1cc2ncnc(Oc3cccc(NC(=O)Nc4cc(C(C)(C)C(F)(F)F)on4)c3)c2cc1OC [CEP-32496] was what?
Resp: class 0

Req: Dear all, I need the recorded test outcome for COc1cc([C@@H]2c3cc4c(cc3[C@H](O)[C@H]3COC(=O)[C@@H]23)OCO4)cc(OC)c1OC [AXL-1717] , thank you.
Resp: class 0

Req: Hey, what did the test say about Cc1nc(NC(=O)N2CCC[C@H]2C(N)=O)sc1-c1ccnc(C(C)(C)C(F)(F)F)c1 [ALPELISIB] ?
Resp: class 0

Req: Hi team, can someone confirm the assay call for `CC(=O)c1cnc2ccc(-c3cc(Cl)c(O)c(Cl)c3)nc2c1N[C@H]1CC[C@H](CN(C)C)CC1` ?
Resp: class 1

Req: Short answer needed: outcome of this test for CNC(=O)c1cc(Oc2ccc(NC(=O)Nc3cc(C(C)(C)C)nn3-c3ccc4ncccc4c3)c(F)c2)ccn1 [REBASTINIB] ?
Resp: class 0

Req: What was the test verdict on NC1(c2ccc(-c3nc4ccn5c(=O)[nH]nc5c4cc3-c3ccccc3)cc2)CCC1 [MK-2206] ?
Resp: class 0

Req: Hello, I am checking results. What call was entered for C[C@@H](NC(=O)c1ncnc(N)c1Cl)c1ncc(C(=O)Nc2cc(C(F)(F)F)c(Cl)cn2)s1 [TOVORAFENIB] ?
Resp: class 0

Req: What did this assay record as the result for Cn1ncc(Cl)c1-c1cc(C(=O)N[C@H](CN)Cc2ccc(F)c(F)c2)oc1Cl [UPROSERTIB] ?
Resp: class 0

Req: Test call for this molecule, please: `C=CC(=O)N1CCC[C@H](n2c(=O)n(-c3ccc(Oc4ccccc4)cc3)c3c(N)ncnc32)C1`
Resp: class 0

Req: Field: outcome | Entry: Cc1nc2cc(-n3ncc(C(=O)c4cc5ccccc5[nH]4)c3N)ccc2[nH]1 [FGFR INHIBITOR DEBIO 1347]
Resp: class 0

Req: Test call, this molecule: CCS(=O)(=O)N1CCN(c2ccc(Nc3ncc(C(N)=O)c(NC4CC4)n3)cc2)CC1 [Cerdulatinib Hydrochloride]
Resp: class 0

Req: Each molecule tested received a call. Report the one for O=C(Nc1cc(C(F)(F)F)cc(C(F)(F)F)c1)c1cc(Cl)ccc1O [IMD-0354] .
Resp: class 0

Req: For CNC(=O)c1cccc2cc(Oc3ccnc4cc(OCC5(N)CC5)c(OC)cc34)ccc12 [LUCITANIB] , what call appears in the results of this test?
Resp: class 0

Req: Assay outcome for `Cc1nc2cc(-c3nn(C(C)C)c4ncnc(N)c34)ccc2o1` : what was it?
Resp: class 0

Req: Recorded call for C#Cc1cccc(Nc2ncnc3cc(OC)c(OCCCCCCC(=O)NO)cc23)c1 [CUDC-101] ?
Resp: class 0

Req: Short answer needed: outcome of this test for CN(C[C@@H]1COCCO1)S(=O)(=O)Nc1ccc2ccc3ncc(-c4cnn(C)c4)cc3c(=O)c2c1 [MK-2461] ?
Resp: class 0

Req: Dear colleague, could you share the recorded outcome for O=C(Nc1nc2cccc(-c3ccc(CN4CCS(=O)(=O)CC4)cc3)n2n1)C1CC1 [FILGOTINIB] when you have a moment?
Resp: class 0

Req: Status in this test for `CCNC(=O)C#Cc1ccc2c(c1)NC(=O)/C2=C(\Nc1ccc(CN(C)C)cc1)c1ccccc1` ?
Resp: class 0
